Values compiled from paper PMC2756588.

Biological target: T1, Cdc25, P04821
T1 sequence (P04821 50-136, looked up): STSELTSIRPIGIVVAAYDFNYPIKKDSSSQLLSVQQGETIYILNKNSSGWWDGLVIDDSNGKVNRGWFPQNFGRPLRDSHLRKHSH
Test: SPOT array
Conditions: median of control spots 969
recorded_endpoint: SPOT intensity

- LRIKRKPVQTFFEFI: 271
- NPTKSPPPPPSPSTM: 3
- FIRKRAPTPPAPSRS: 43
- RRSKSLPTTPGIRSG: 17
- KDKKTKPTPPPKPSH: 2
- VDFTLPPPPPPPGLD: 0

a: HGKRRAPLLLAKLDV
b: QLMKNLPKIPLLNDI
Challenge: Consider a and b . Which of these has its SPOT intensity at a higher number? Answer format: the label of the selected item.
Response given: a

A: DKSRPPRPPPKPLHL
B: RPKRRAPPPVPKKPS
Challenge: Form: Entry with minimum SPOT intensity (choose one): A / B Answer format: the label of the selected item.
Response given: A

a: TKPTPPPKPSHLKPK
b: GAGERPRLVPRPINV
c: LEFRAILFIPKRAPF
d: ISNFVPPNLPMRRFK
Challenge: Please put the entries in order of rising SPOT intensity. Write out the labels following the order that was asked for.
Response given: d, a, b, c
(d: 0, a: 2, b: 18, c: 29)

a: FPGKKSPRLPHRNKK
b: SRYRRPLTLLLLKPF
c: DAPASKPSVPPRNYF
d: HKVLRPFLLRRLKKD
e: RHLKLVPSTPMDIPW
Challenge: Given 5 binders, produce a descending ranking by SPOT intensity. Write out the labels following the order that was asked for.
Response given: b, d, a, e, c
(b: 236, d: 67, a: 35, e: 14, c: 0)
